Reference for the values: patent US12377110B2

# MEASUREMENT DESCRIPTION: Study A16 Part 1: PK of single ascending oral doses of fospropofol disodium (200 to 2000 mg), fasted healthy adults
# Assay type: in vivo, human
# CONDITION SUMMARY: both sexes, human, plasma; oral fospropofol disodium 400 mg; mean; read-out: Fospropofol t1/2 (converted)
EXPERIMENTAL ENDPOINT: half-life (min)
Give bare numbers, in min.

*Q* Any idea what half-life was measured for "CC(C)c1cccc(C(C)C)c1OCOP(=O)(O)O" ?
*A* 14.4

* * *

# MEASUREMENT DESCRIPTION: Study A16 Part 1: PK of single ascending oral doses of fospropofol disodium (200 to 2000 mg), fasted healthy adults
# Type: in vivo, human
# CONDITION SUMMARY: both sexes, human, plasma, po, 2000 mg, oral fospropofol disodium 2000 mg; median; read-out: Fospropofol Tmax
EXPERIMENTAL ENDPOINT: Tmax (min)
Answers are plain numbers, in min.

*Q* Which measured Tmax value corresponds to CC(C)c1cccc(C(C)C)c1OCOP(=O)(O)O [fospropofol] ?
*A* 22.8

* * *

# MEASUREMENT DESCRIPTION: Study No. 15-3 toxicokinetics of fospropofol and propofol in plasma
# Assay type: in vivo, Sprague-Dawley rats
# CONDITION SUMMARY: female, Sprague-Dawley, rat, plasma, po, 100 mg/kg, oral gavage fospropofol disodium; Female; 100 mg/kg; Day 1; read-out: Fospropofol Cmax
EXPERIMENTAL ENDPOINT: Cmax
A bare number is not enough; add the unit after it.

*Q* Item under review: "CC(C)c1cccc(C(C)C)c1OCOP(=O)(O)O" . Reported Cmax?
*A* 1630 ng/mL

* * *

# MEASUREMENT DESCRIPTION: Study No. 15-3 toxicokinetics of fospropofol and propofol in plasma
# Type: in vivo, Sprague-Dawley rats
# CONDITION SUMMARY: female, Sprague-Dawley, rat, plasma, po, 100 mg/kg, oral gavage fospropofol disodium; Female; 100 mg/kg; Day 1; read-out: Fospropofol AUC0-6 hr
EXPERIMENTAL ENDPOINT: AUC(0-t)
Could you kindly put the unit after your number?

*Q* AUC(0-t) lookup needed for CC(C)c1cccc(C(C)C)c1OCOP(=O)(O)O [fospropofol] , thanks.
*A* 0.827 µg·h/mL

* * *

# MEASUREMENT DESCRIPTION: Study A16 Part 1: PK of single ascending oral doses of fospropofol disodium (200 to 2000 mg), fasted healthy adults
# Format: in vivo, human
# CONDITION SUMMARY: both sexes, human, plasma, po, 800 mg, Propofol Cmax Mean (SD), oral fospropofol disodium 800 mg
EXPERIMENTAL ENDPOINT: Cmax (ng/mL)
Numbers only, in ng/mL.

*Q* Fill blank: measured Cmax of the compound "CC(C)c1cccc(C(C)C)c1O" is ____.
*A* 362

* * *

# MEASUREMENT DESCRIPTION: Study No. 15-3 toxicokinetics of fospropofol and propofol in plasma
# Type: in vivo, Sprague-Dawley rats
# CONDITION SUMMARY: male, Sprague-Dawley, rat, plasma, po, 100 mg/kg, oral gavage fospropofol disodium; Male; 100 mg/kg; Day 14; read-out: Fospropofol Tmax
EXPERIMENTAL ENDPOINT: Tmax (min)
One number for each entry, in min.

*Q* What does the record list as Tmax for CC(C)c1cccc(C(C)C)c1OCOP(=O)(O)O [fospropofol] ?
*A* 4.98
